Just for reference, the supplement of paper PMC9844399 is where these values come from.

I'd appreciate it if you could supply nuclear count per well values for the items below.
System: HeLa;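 further: Hoechst-stained nuclei counted by automated confocal imaging of four fields per well in 384-well plates, with the robust Z-score based on the per-plate DMSO median and robust SD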
PROTOCOL_DESCRIPTION: nuclear count per well, robust Z-score vs DMSO; higher = more cells (less toxicity)
EXPERIMENTAL_CONTEXT: 10 µM; 6 h
Counter-ions that a name gives are not always drawn.
API doc: respond with a numeric literal and nothing else, no unit.

Exam item: State its nuclear count per well for this molecule: NS(=O)(=O)Cc1noc2ccccc12 [Zonisamide]
Marked response: 1.05

Exam item: State its nuclear count per well for this molecule: CC(c1cc2ccccc2s1)N(O)C(N)=O (configuration not stated) [Zileuton]
Marked response: 0.0856

Exam item: State its nuclear count per well for this molecule: CC(C)(C)NC[C@H](O)COc1nsnc1N1CCOCC1 [(S)-Timolol Maleate]
Marked response: 1.14

Exam item: State its nuclear count per well for this molecule: OC(c1cc(C(F)(F)F)nc2c(C(F)(F)F)cccc12)C1CCCCN1 (configuration not stated)
Marked response: -1.03

Exam item: State its nuclear count per well for this molecule: CC(=O)[C@H]1CC[C@H]2[C@@H]3CCC4=CC(=O)CC[C@]4(C)[C@H]3CC[C@]12C [Progesterone]
Marked response: 0.401

Exam item: State its nuclear count per well for this molecule: OCCN1C[C@H](O)[C@@H](O)[C@H](O)[C@H]1CO [Miglitol]
Marked response: -0.458

Exam item: State its nuclear count per well for this molecule: CC(C)c1ccc2oc3nc(N)c(C(=O)O)cc3c(=O)c2c1 [Amlexanox]
Marked response: -0.135

Exam item: State its nuclear count per well for this molecule: CC/C=C\C/C=C\C/C=C\CCCCCCCC(=O)O [Linolenic acid (18:3 n-3)]
Marked response: -0.431

Exam item: State its nuclear count per well for this molecule: CC(=O)Nc1nnc(S(N)(=O)=O)s1 [Acetazolamide]
Marked response: -0.436

Exam item: State its nuclear count per well for this molecule: C[C@@H](O)[C@H]1C(=O)N2C(C(=O)O)=C(S[C@@H]3CN[C@H](CNS(N)(=O)=O)C3)[C@H](C)[C@H]12 [Doripenem]
Marked response: -0.646

Exam item: State its nuclear count per well for this molecule: C[C@@H]1C[C@H]2[C@@H]3CCC4=CC(=O)C=C[C@]4(C)[C@@]3(Cl)[C@@H](O)C[C@]2(C)[C@@]1(OC(=O)c1ccco1)C(=O)CCl [Mometasone Furoate]
Marked response: 0.429

Exam item: State its nuclear count per well for this molecule: CC(CN(C)C)CN1c2ccccc2CCc2ccccc21 (configuration not stated) [Trimipramine Maleate]
Marked response: -0.14

Exam item: State its nuclear count per well for this molecule: COC1CC2CCC(C)C(O)(O2)C(=O)C(=O)N2CCCCC2C(=O)OC(C(C)CC2CCC(O)C(OC)C2)CC(=O)C(C)C=C(C)C(O)C(OC)C(=O)C(C)CC(C)C=CC=CC=C1C (configuration not stated) [Rapamycin from Streptomyces hygroscopicus]
Marked response: -0.332

Exam item: State its nuclear count per well for this molecule: CCN(Cc1ccncc1)C(=O)C(CO)c1ccccc1 (configuration not stated) [Tropicamide]
Marked response: 0.487

Exam item: State its nuclear count per well for this molecule: CCCCCCCCCCCCC/C=C/[C@@H](O)[C@H](CO)NC(C)=O [C2 Ceramide]
Marked response: 0.589

Exam item: State its nuclear count per well for this molecule: Cc1ccccc1C(=O)Nc1ccc(C(=O)N2CCCC(O)c3cc(Cl)ccc32)c(C)c1 (configuration not stated) [Tolvaptan]
Marked response: 0.183

Exam item: State its nuclear count per well for this molecule: CC1(C)NC(=O)N(c2ccc([N+](=O)[O-])c(C(F)(F)F)c2)C1=O [Nilutamide]
Marked response: -0.267
